system: T47D; assay: NCI tumour cell line growth inhibition, 48 h
Calls of active or inactive are those of the source. No stated cut-off is given here; in the data, active = GI50 up to about 1.1 µM and inactive = higher.
# output must be one of label 1 = active, label 0 = inactive

COMPOUND | CLASS LABEL
COc1ccc(OC)c(/C=C/c2cnnc3ccccc23)c1 | label 0
CCOC(=O)c1csc(NC(=O)CCN(CC)CC)n1 | label 0
C=C1C(C(O)C[C@H](C)C2O[C@@]3(CCCCO3)CCC2C)O[C@@H]2CCC3(CCC(/C=C/[C@@H](C)C4CC(C)=CC5(O4)O[C@H](C[C@](C)(O)C(=O)O)CCC5O)O3)OC2[C@@H]1O (some centres undefined) | label 1
[N-]=[N+]=NC1C(O)C(CO)OC1n1cnc2c(N)ncnc21 (centres undefined) | label 0
O=C(Oc1ccccc1)c1cc2cc(CCl)ccc2oc1=O | label 0
CCOC(=O)c1ccc(/N=C2\Sc3nc4ccccc4n3\C2=N\c2ccc(C(=O)OCC)cc2)cc1 | label 0

Inquiry: Please state the recorded outcome for this compound: O=c1[nH]c2ccccc2nc1CBr
Reply text: label 0

Inquiry: Please state the recorded outcome for this compound: CS(=O)(=O)C[S+]([O-])C[S+]([O-])C[S+]([O-])CC(NC(=O)CCC(N)C(=O)O)C(=O)O (centres undefined)
Reply text: label 0

Inquiry: Please state the recorded outcome for this compound: COc1cc2c(c3c1c(=O)c1ccccc1n3C)C=C([N+](=O)[O-])C(C)(C)O2
Reply text: label 0

* * *

tested on: KM12; experiment: NCI tumour cell line growth inhibition, 48 h
The source made the active and inactive calls. No stated cut-off is given here; in the data, active = GI50 up to about 1.1 µM and inactive = higher.
MEASUREMENT LABEL: GI50

Considering C/N=c1/ssc(=S)n1C(C)C , its GI50 with KM12 was recorded as 25.2 µM (inactive)

* * *

Measured GI50 accompanies every entry in the list below.
test system: NCI-H226; test: NCI tumour cell line growth inhibition, 48 h
Activity calls are given as the source filed them. Rule as the data show it: active = GI50 up to about 1.1 µM and inactive = higher.

COMPOUND | GI50
COc1ccc(CN2C(=O)CCC/C=C\[C@H]2CI)cc1 | 12.9 µM (inactive)

Now take the following compound into account.
For this compound ( O=[N+]([O-])c1ccc(S(=O)(=O)Cc2ccccc2)c([N+](=O)[O-])c1 ), measured GI50 is 21.9 µM (inactive)

* * *

Measured GI50 accompanies every entry in the list below.
system: HT-29; test: NCI tumour cell line growth inhibition, 48 h
Calls of active or inactive are those of the source. No stated cut-off is given here; in the data, active = GI50 up to about 1.1 µM and inactive = higher.

Take a look at these entries with their results.
MOLECULE | GI50
N#CC(NNC(=O)c1ccccc1O)c1cccc(O)c1 (centres undefined) | 37.6 µM (inactive)
O=C(O[C@@H](/C=C/c1ccccc1)P1(=O)N(Cc2ccccc2)[C@H]2CCCC[C@@H]2N1Cc1ccccc1)c1ccccc1 | 3.08 µM (inactive)
COc1cccc(N2CCc3c(C)c(C#N)c4nc5ccccc5n4c32)c1 | > 100 µM (inactive)

Now take the following molecule into account.
For this molecule ( CCOC(=O)/C(C(=O)c1ccc([N+](=O)[O-])cc1)=C(\NS(=O)(=O)c1cc(C)c(Cl)cc1[S-])[n+]1ccc(N(C)C)cc1 ), measured GI50 is 24 µM (inactive)

* * *

system: SK-MEL-28; experiment: NCI tumour cell line growth inhibition, 48 h
Calls of active or inactive are those of the source. Rule as the data show it: active = GI50 up to about 1.1 µM and inactive = higher.
MEASUREMENT LABEL: GI50

MOLECULE | SYSTEM NAME | GI50
NC(=O)C(c1ccccc1)N1OC2C(=O)N(Cc3ccccc3)C(=O)C2C1c1cccc(Oc2ccc(Cl)cc2)c1 (centres undefined) | SK-MEL-28 | 79.3 µM (inactive)
COc1ccc(/N=N/c2c(-c3ccccc3)nn(C(=O)CC(=O)Nc3cccc(Cl)c3)c2-c2ccccc2)cc1 | SK-MEL-28 | > 100 µM (inactive)
CC1N[B@@-](C)(c2ccc(C(F)(F)F)cc2)OC1c1ccccc1 (some centres undefined) | SK-MEL-28 | > 100 µM (inactive)

For this molecule ( CC(C)(C)N1C(=O)[N-]/[N+](=C(/C(c2ccccc2)=[N+]2/[N-]C(=O)N(C(C)(C)C)C2=O)c2ccccc2)C1=O ), measured GI50 is > 100 µM (inactive)
